Test system: SB.msgc-1
Assay: viability at highest tested concentration (MAXR) relative to DMSO; higher = less cytotoxic
Conditions: SB.msgc-1 (sporadic gastric cancer)
viability: recorded values
Lab note: write values as number then unit, every time.

compound | viability
O=C(NC[C@H](O)CO)c1ccncc1Nc1ccc(I)cc1F [Pimasertib] (top concentration 46.0829 µM) | 67.1%
COc1cc(NCc2ccc3nc(N)nc(N)c3c2C)cc(OC)c1OC [Trimetrexate] (top concentration 46.0829 µM) | 12.2%

Incoming: Which viability is listed for CC(C)C(C)/C=C/C(C)C1CCC2C3=CC=C4CC(O)CCC4(C)C3CCC21C (stereo not drawn) [Ergosterol] (top concentration 46.0829 µM) ?
Outgoing: 97.5%
